The molecules listed here are annotated with their pKd.
assayed.system: Heat shock protein 90 (Plasmodium falciparum, UniProt Q8IC05)
Sequence (Q8IC05 1-745): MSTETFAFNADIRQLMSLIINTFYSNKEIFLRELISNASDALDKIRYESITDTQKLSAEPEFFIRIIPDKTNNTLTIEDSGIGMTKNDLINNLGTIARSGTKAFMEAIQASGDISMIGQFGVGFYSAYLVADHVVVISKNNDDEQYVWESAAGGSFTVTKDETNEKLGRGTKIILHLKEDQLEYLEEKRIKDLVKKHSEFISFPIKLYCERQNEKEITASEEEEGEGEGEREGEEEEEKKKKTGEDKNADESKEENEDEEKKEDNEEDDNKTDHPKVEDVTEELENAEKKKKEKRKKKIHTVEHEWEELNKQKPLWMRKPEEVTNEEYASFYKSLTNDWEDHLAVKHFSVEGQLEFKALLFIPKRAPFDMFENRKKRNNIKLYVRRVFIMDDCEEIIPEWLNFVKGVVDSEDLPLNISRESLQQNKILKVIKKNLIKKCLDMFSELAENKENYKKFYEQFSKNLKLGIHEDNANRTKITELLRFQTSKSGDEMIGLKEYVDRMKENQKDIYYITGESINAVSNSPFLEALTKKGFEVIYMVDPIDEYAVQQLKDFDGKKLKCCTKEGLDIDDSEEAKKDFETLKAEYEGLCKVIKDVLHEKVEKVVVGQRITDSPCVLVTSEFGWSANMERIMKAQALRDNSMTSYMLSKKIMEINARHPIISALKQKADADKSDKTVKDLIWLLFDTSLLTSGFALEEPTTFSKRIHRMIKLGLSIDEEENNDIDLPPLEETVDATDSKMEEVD
assay.info: Binding affinity to recombinant Plasmodium falciparum Hsp90 expressed in Escherichia coli BL21(DE3) pLysS by microscale thermophoresis assay
When answering, recall that pKd equals minus log10 of the concentration in mol/L, and write that number alone.

- molecule: "OC(CN1CCN(Cc2ccccc2)CC1)Cn1c2ccc(Cl)cc2c2cc(Cl)ccc21 (configuration not stated)"
  pKd: 4.55

API: the following record is the query input.
Q. Given the molecule O=C(c1ccccc1)N1CCN(CC(O)Cn2c3ccc(Cl)cc3c3cc(Cl)ccc32)CC1 (configuration not stated) , write its reported pKd.
A. 4.59

Cited source: ChEMBL document CHEMBL4431313
